Test system: MCAK motor domain (His-M, His-NM)
Assay: Resin-based (glutathione agarose) GST pull-down binding assay
Set-up: species or system human
Settings: GST-CT constructs on glutathione agarose beads; purified His-M / His-NM; Coomassie-stained gel
Text: Kinesin-1 is regulated through an auto-inhibitory mechanism whereby one C-terminal tail binds at the interface of the two motors, such that it creates a second point of attachment in addition to the coiled coil region. This limits the head movement of one kinesin with respect to the other ([Stock et al., 1999]; [Hackney and Stock, 2000]; [Kaan et al., 2011]). […]
Ends that are not written are not given here.
ENDPOINT NAME: binding to the motor domain of MCAK

CTR716A: CT domain point mutant R716A (VIKALRLAMQLEEQASAQISSKKRPQ; not fully specified): bound robustly
CTI718A: CT domain point mutant I718A (VIKALRLAMQLEEQASRQASSKKRPQ; not fully specified): bound robustly
